biological target: Kv7.2 (Homo sapiens); construct: expressed in transfected cells; experiment: Activation of Kv7.2 (in vitro assay, concentration response curve); assay type: cell-based; conditions: Kv7.2 activation max %
// values below are reported Emax
# value in %; strip the unit string

Observe how each entry below is paired with its result.
| molecule | result-number |
| --- | --- |
| O=C(NCc1ccnc(-n2cccn2)c1)NC12CC(C(F)(F)F)(C1)C2 | 58 |
| O=C(NCc1ccnc(CC(F)(F)F)c1)Nc1cccc(Cl)c1 | 59 |
| O=C(NCc1ccnc(OC(F)F)c1)NC1(C(F)(F)F)CC1 | 50 |

Lab note: O=C(NCc1ccnc(OCC(F)(F)F)c1)NC1CCCC1 gave Emax of 75

O=C(NCc1ccnc(OC(F)F)c1)NC[C@@]12CCC[C@@H]1CCO2 (racemic) yielded Emax of 53

Documented Emax of O=C(NCc1cc(OCC(F)(F)F)ncn1)N[C@H]1C[C@H](C(F)(F)F)C1 : 75

Item: C#CC1CC(NC(=O)NCc2ccnc(OC(F)F)c2)C1 (stereo not drawn) | Emax: 56

Record CC(F)(F)c1cc(CNC(=O)N[C@H]2C[C@@H]3CC[C@H]2C3)ccn1 (racemic) , field Emax: 80

Documented Emax of O=C(NCc1ccnc(OC(F)F)c1)N[C@H]1[C@@H](O)[C@H]2CCC[C@H]21 (racemic) : 63
